# study target: T1, B3GNT2 (Homo sapiens, UniProt Q9NY97)
# T1 construct: The respective ORFs of candidate genes [CD274 (NM_014143), MCL1 (NM_021960), JUNB (NM_002229), and B3GNT2 (NM_006577)] were synthesized; expressed in transfected cells; host or cells: A375 melanoma cells (lentiviral ORF overexpression)
# T1 sequence (Q9NY97 1-397): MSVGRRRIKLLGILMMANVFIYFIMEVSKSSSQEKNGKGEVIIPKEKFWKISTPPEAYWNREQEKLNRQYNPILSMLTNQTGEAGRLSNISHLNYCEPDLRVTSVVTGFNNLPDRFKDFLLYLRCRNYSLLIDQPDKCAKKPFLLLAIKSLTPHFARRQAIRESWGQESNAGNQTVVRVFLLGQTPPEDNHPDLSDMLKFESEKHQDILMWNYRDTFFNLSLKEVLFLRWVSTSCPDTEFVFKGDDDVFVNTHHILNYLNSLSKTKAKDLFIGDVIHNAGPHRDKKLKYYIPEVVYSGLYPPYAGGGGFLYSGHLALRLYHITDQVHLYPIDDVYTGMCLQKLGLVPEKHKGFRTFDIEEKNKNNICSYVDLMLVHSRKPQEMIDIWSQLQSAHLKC
# procedure text: Co-IP of FLAG-tagged B3GNT2 followed by mass spectrometry
# Assay type: cell-based
# Set-up: unit not given here
# particulars: Co-IP with IgG control antibody, C-terminally FLAG-tagged B3GNT2; mass spectrometry count, unit not given
test readout: C-term IgG

[in] Tell me its C-term IgG given ERP44 (protein) EITSLDTENIDEILNNADVALVNFYADWCRFSQMLHPIFEEASDVIKEEFPNENQVVFARVDCDQHSDIAQRYRISKYPTLKLFRNGMMMKREYRGQRSVKALADYIRQQKSDPIQEIRDLAEITTLDRSKRNIIGYFEQKDSDNYRVFERVANILHDDCAFLSAFGDVSKPERYSGDNIIYKPPGHSAPDMVYLGAMTNFDVTYNWIQDKCVPLVREITFENGEELTEEGLPFLILFHMKEDTESLEIFQNEVARQLISEKGTINFLHADCDKFRHPLLHIQKTPADCPVIAIDSFRHMYVFGDFKDVLIPGKLKQFVFDLHSGKLHREFHHGPDPTDTAPGEQAQDVASSPPESSFQKLAPSEYRYTLLRDRDEL as the entry.
[out] 0

[in] Tell me its C-term IgG given DPM1 (protein, UniProt O60762 2-260, looked up) Dolichol-phosphate …: ASLEVSRSPRRSRRELEVRSPRQNKYSVLLPTYNERENLPLIVWLLVKSFSESGINYEIIIIDDGSPDGTRDVAEQLEKIYGSDRILLRPREKKLGLGTAYIHGMKHATGNYIIIMDADLSHHPKFIPEFIRKQKEGNFDIVSGTRYKGNGGVYGWDLKRKIISRGANFLTQILLRPGASDLTGSFRLYRKEVLEKLIEKCVSKGYVFQMEMIVRARQLNYTIGEVPISFVDRVYGESKLGGNEIVSFLKGLLTLFATT as the entry.
[out] 0

[in] Tell me its C-term IgG given ARF4 (protein) GLTISSLFSRLFGKKQMRILMVGLDAAGKTTILYKLKLGEIVTTIPTIGFNVETVEYKNICFTVWDVGGQDRIRPLWKHYFQNTQGLIFVVDSNDRERIQEVADELQKMLLVDELRDAVLLLFANKQDLPNAMAISEMTDKLGLQSLRNRTWYVQATCATQGTGLYEGLDWLSNELSKR as the entry.
[out] 0
